Molecular target: recombinant human prolyl oligopeptidase (PREP) (Homo sapiens, UniProt P48147)
Sequence (P48147 whole entry): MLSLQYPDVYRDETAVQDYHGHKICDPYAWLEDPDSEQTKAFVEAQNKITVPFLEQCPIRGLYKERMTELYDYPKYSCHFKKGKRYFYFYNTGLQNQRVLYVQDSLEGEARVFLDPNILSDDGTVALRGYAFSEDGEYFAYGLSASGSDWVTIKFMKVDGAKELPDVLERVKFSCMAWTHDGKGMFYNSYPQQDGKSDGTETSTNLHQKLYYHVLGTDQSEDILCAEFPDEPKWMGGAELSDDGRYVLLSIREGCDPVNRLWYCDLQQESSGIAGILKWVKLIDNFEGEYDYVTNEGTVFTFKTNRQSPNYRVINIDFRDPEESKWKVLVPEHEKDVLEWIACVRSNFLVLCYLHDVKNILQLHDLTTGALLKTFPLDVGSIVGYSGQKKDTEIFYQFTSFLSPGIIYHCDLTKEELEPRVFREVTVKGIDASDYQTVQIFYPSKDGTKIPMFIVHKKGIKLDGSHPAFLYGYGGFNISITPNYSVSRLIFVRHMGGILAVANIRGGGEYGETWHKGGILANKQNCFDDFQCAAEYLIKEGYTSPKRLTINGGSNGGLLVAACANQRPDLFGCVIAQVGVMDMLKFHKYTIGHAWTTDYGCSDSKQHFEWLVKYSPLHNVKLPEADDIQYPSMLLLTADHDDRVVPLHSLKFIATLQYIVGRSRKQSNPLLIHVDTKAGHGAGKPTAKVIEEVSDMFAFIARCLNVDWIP
Test: Selective assay, protease inhibition (PREP)
Conditions: substrate Z-Gly-Pro-AMC
measure-name: IC50

Query: Quickly give me recorded IC50 for N#C[C@@H]1CC(F)(F)CN1C(=O)CNC(=O)c1cccc2c1CCN(C(=O)CCC(=O)NCCNC(=O)CCC(C(=O)O)N1CCN(CC(=O)O)CCN(CC(=O)O)CCN(CC(=O)O)CC1)C2 (stereo partly shown)
Reply: > 1000 nM

###

System: HT1080 8 #cells
Test: Cell competitive binding assay against ^177Lu-radiolabeled FAPi-46
Settings: competition with ^177Lu-FAPi-46, on ice 2 hours
Give measured EC50 for each item. Keep answers brief.
# output: bare number, implied unit ng/mL

Query: Lab note: HT1080 8 #cells assay, enter EC50 for N#C[C@@H]1CC(F)(F)CN1C(=O)CNC(=O)c1cccc2c1CCCN2C(=O)CCC(=O)NCCNC(=O)CCC(C(=O)O)N1CCN(CC(=O)O)CCN(CC(=O)O)CCN(CC(=O)O)CC1 (stereo partly drawn) here
Reply: 3.38

Query: Lab note: HT1080 8 #cells assay, enter EC50 for N#C[C@@H]1CC(F)(F)CN1C(=O)CNC(=O)c1cccc2c1CCN(C(=O)CCC(=O)NCCNC(=O)CCC(C(=O)O)N1CCN(CC(=O)O)CCN(CC(=O)O)CCN(CC(=O)O)CC1)C2 (stereo partly drawn) here
Reply: 1.726

Query: Lab note: HT1080 8 #cells assay, enter EC50 for N#C[C@@H]1CC(F)(F)CN1C(=O)CNC(=O)c1cccc2c1CNCC2 here
Reply: 11.89
